# target under test: NS5B from the BK strain (genotype 1b) (Hepatitis C virus genotype 1b)
# Construct: NS5B from the BK strain (genotype 1b) is expressed in E coli as a protein in which the 21 C-terminal amino acids are replaced
# Sequence (P26663 2420-2989): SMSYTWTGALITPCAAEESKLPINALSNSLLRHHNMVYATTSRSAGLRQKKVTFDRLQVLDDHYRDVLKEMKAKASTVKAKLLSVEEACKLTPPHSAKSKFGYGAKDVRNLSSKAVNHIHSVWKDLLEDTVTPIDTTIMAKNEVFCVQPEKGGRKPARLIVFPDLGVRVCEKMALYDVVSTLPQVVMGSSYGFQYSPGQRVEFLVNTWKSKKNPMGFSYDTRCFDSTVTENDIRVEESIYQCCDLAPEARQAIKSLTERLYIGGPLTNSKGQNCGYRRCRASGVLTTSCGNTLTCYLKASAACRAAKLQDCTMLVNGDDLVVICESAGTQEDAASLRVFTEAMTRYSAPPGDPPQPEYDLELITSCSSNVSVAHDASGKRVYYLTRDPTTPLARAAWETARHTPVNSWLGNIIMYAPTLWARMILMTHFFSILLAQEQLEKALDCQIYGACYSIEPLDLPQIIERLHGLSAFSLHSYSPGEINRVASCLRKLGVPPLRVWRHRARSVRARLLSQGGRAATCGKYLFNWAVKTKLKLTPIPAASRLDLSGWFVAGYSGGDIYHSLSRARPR
# experiment notes: Hepatitis C polymerase (NS5B, BK strain) inhibition, radioactive filter assay
# stated conditions: NS5B BK strain (genotype 1b)
pIC50: −log10 of the molar value.
recorded metric: pIC50

compound: CCCC1(CC(=O)O)OCCc2c1[nH]c1c(C)c(OCCCc3cc(C)on3)cc(C#N)c21 (centres unmarked)
target under test: NS5B from the BK strain (genotype 1b) (Hepatitis C virus genotype 1b)
pIC50: > 6.30

compound: CCC[C@]1(CC(=O)O)OCCc2c1[nH]c1c(C)c(OCc3nnc(C)s3)cc(C#N)c21
target under test: NS5B from the BK strain (genotype 1b) (Hepatitis C virus genotype 1b)
pIC50: > 6.30

compound: CCCC1(CC(=O)O)OCCc2c1[nH]c1c(C)c(OCc3nsc(OCC)n3)cc(C#N)c21 (centres unmarked)
target under test: NS5B from the BK strain (genotype 1b) (Hepatitis C virus genotype 1b)
pIC50: > 6.30

compound: CCCC1(CC(=O)O)OCCc2c1[nH]c1c(C)c(OCc3ccc(N4CCOCC4)nc3)cc(C#N)c21 (centres unmarked)
target under test: NS5B from the BK strain (genotype 1b) (Hepatitis C virus genotype 1b)
pIC50: > 6.30

compound: CCC[C@]1(CC(=O)O)OCCc2c1[nH]c1c(C)c(OCCOC(C)C)cc(C#N)c21
target under test: NS5B from the BK strain (genotype 1b) (Hepatitis C virus genotype 1b)
pIC50: > 6.30

compound: CCCC1(CC(=O)O)OCCc2c1[nH]c1c(C)c(OCCOCCOC)cc(C#N)c21 (centres unmarked)
target under test: NS5B from the BK strain (genotype 1b) (Hepatitis C virus genotype 1b)
pIC50: > 6.30

Enter reported pIC50 observed with NS5B from the BK strain (genotype 1b) (Hepatitis C virus genotype 1b) for CCCC1(CC(=O)O)OCCc2c1[nH]c1c(C)c(COCC3CC3)cc(C#N)c21 (centres unmarked)
5.30 to 6.30

Enter reported pIC50 observed with NS5B from the BK strain (genotype 1b) (Hepatitis C virus genotype 1b) for CCCC1(CC(=O)O)OCCc2c1[nH]c1c(C)c(OCc3ccc(N)nc3)cc(C#N)c21 (centres unmarked)
> 6.30

Enter reported pIC50 observed with NS5B from the BK strain (genotype 1b) (Hepatitis C virus genotype 1b) for CCCC1(CC(=O)O)OCCc2c1[nH]c1c(C)c(OCc3ccc(C)nc3)cc(C#N)c21 (centres unmarked)
> 6.30
